B1: Probable E3 ubiquitin-protein ligase MID2, residues 191 to 235; numbered along this chain, Q9UJV3 (parent)
chain: RGITCLDHENEKVNMYCVSDDQLICALCKLVGRHRDHQVASLNDR

# Variants of: B1
# ASSAY PROCEDURE: abundance fitness (aPCA) (normalised: wild type 0, dead -1); higher = more abundant; growth selection in yeast, the domain comes from the species named
# PARTICULARS: Homo sapiens
REPORTED METRIC: abundance fitness
I only need the number, thanks.

Some solved cases for reference:
// query Identify measured abundance fitness associated with RGITCLDHENEKVNMYCVSDDQLICALCKLVGRHFDHQVASLNDR [R35F]
// result -0.529

// query Identify measured abundance fitness associated with RGITCLDHENEKVNMYCVSDLQLICALCKLVGRHRDHQVASLNDR [D21L]
// result -0.526

// query Identify measured abundance fitness associated with RGITCLDHENEKVNMYCVSDDQLICALCKLVGRHRDHQVASLLDR [N43L]
// result -0.126

Kindly review the next variant as well.
// query Identify measured abundance fitness associated with RGITCLDHENEKVNMYCVSDDQLICALCKLVLRHRDHQVASLNDR [G32L]
// result -0.684
